Test system: Leishmania major
Experiment: Antileishmanial activity against Leishmania major promastigotes assessed as inhibition of [3H]thymidine incorporation after 18 hrs by scintillation counting
Format: functional, organism-based
pIC50: −log10 of the molar value.

compound	pIC50
Cc1cccc2oc(=O)c3c(c12)O[C@H](C)[C@@]3(C)CC(=O)[C@@H]1OC1(C)C [CYCLOISOBRACHYCOUMARINONE EPOXIDE]	4.87
Cc1cccc2oc(=O)c3c(c12)O[C@@H](C)[C@@]3(C)CC(=O)[C@@H]1OC1(C)C	4.43
